system: NCI-H1651; assay: relative viability (nuclei count vs DMSO), 5 days (fraction); higher = more cells survive; settings: first compound 0.01581 µM
ENDPOINT LABEL: relative viability

>  <COMPOUND>
Nc1ccn([C@@H]2O[C@H](CO)[C@@H](O)[C@@H]2O)c(=O)n1 [Cytarabine] + Nc1nc2[nH]cc(CCc3ccc(C(=O)N[C@@H](CCC(=O)O)C(=O)O)cc3)c2c(=O)[nH]1 [Pemetrexed] (partner 0.2 µM)

>  <ASSAY RESULT>
0.569

$$$$
>  <COMPOUND>
COc1cc2nccc(Oc3ccc(NC(=O)Nc4cc(C)on4)c(Cl)c3)c2cc1OC [Tivozanib] + CC1(C)CCC(c2ccc(Cl)cc2)=C(CN2CCN(c3ccc(C(=O)NS(=O)(=O)c4ccc(N[C@H](CCN5CCOCC5)CSc5ccccc5)c(S(=O)(=O)C(F)(F)F)c4)cc3)CC2)C1 [Navitoclax] (partner 0.5 µM)

>  <ASSAY RESULT>
0.934

$$$$
>  <COMPOUND>
Nc1ccn([C@@H]2O[C@H](CO)[C@@H](O)[C@@H]2O)c(=O)n1 [Cytarabine] + N=C(N)NC(=N)NCCc1ccccc1 [Phenformin] (partner 250 µM)

>  <ASSAY RESULT>
0.346

$$$$
>  <COMPOUND>
COc1cc2nccc(Oc3ccc(NC(=O)Nc4cc(C)on4)c(Cl)c3)c2cc1OC [Tivozanib] + Nc1nc2[nH]cc(CCc3ccc(C(=O)N[C@@H](CCC(=O)O)C(=O)O)cc3)c2c(=O)[nH]1 [Pemetrexed] (partner 0.2 µM)

>  <ASSAY RESULT>
0.52

$$$$

====

test system: 201T; assay: relative viability (nuclei count vs DMSO), 5 days (fraction); higher = more cells survive; conditions: first compound 500 µM
Each entry below carries its reported relative viability.

>  <MOLECULE>
O=C(O)CCCCC(CCSCc1ccccc1)SCc1ccccc1 (stereo not given) [CPI-613] + COc1cccc2cc(-c3nc([C@H]4CC[C@H](C(=O)O)CC4)n4ncnc(N)c34)[nH]c12 [OSI-027] (partner 0.5 µM)

>  <relative viability>
0.818

$$$$
>  <MOLECULE>
O=C(O)CCCCC(CCSCc1ccccc1)SCc1ccccc1 (stereo not given) [CPI-613] + CS(=O)(=O)CCNCc1ccc(-c2ccc3ncnc(Nc4ccc(OCc5cccc(F)c5)c(Cl)c4)c3c2)o1 [Lapatinib] (partner 2 µM)

>  <relative viability>
0.972

$$$$
>  <MOLECULE>
O=C(O)CCCCC(CCSCc1ccccc1)SCc1ccccc1 (stereo not given) [CPI-613] + CC(=O)Nc1cccc(-n2c(=O)n(C3CC3)c(=O)c3c(Nc4ccc(I)cc4F)n(C)c(=O)c(C)c32)c1 [Trametinib] (partner 0.02 µM)

>  <relative viability>
0.408

$$$$
>  <MOLECULE>
O=C(O)CCCCC(CCSCc1ccccc1)SCc1ccccc1 (stereo not given) [CPI-613] + COc1cc2c(Oc3ccc(NC(=O)C4(C(=O)Nc5ccc(F)cc5)CC4)cc3F)ccnc2cc1OCCCN1CCOCC1 [Foretinib] (partner 0.25 µM)

>  <relative viability>
0.0557

$$$$
>  <MOLECULE>
O=C(O)CCCCC(CCSCc1ccccc1)SCc1ccccc1 (stereo not given) [CPI-613] + CC(=O)c1c(C)c2cnc(Nc3ccc(N4CCNCC4)cn3)nc2n(C2CCCC2)c1=O [Palbociclib] (partner 0.5 µM)

>  <relative viability>
0.204

$$$$
>  <MOLECULE>
O=C(O)CCCCC(CCSCc1ccccc1)SCc1ccccc1 (stereo not given) [CPI-613] + CCNC(=O)c1noc(-c2cc(C(C)C)c(O)cc2O)c1-c1ccc(CN2CCOCC2)cc1 [Luminespib] (partner 0.01 µM)

>  <relative viability>
0.0468

$$$$
>  <MOLECULE>
O=C(O)CCCCC(CCSCc1ccccc1)SCc1ccccc1 (stereo not given) [CPI-613] + CC(C)C[C@H](NC(=O)[C@H](Cc1ccccc1)NC(=O)c1cnccn1)B(O)O [Bortezomib] (partner 0.002 µM)

>  <relative viability>
0.949

$$$$
>  <MOLECULE>
O=C(O)CCCCC(CCSCc1ccccc1)SCc1ccccc1 (stereo not given) [CPI-613] + Cc1nc(NC(=O)N2CCC[C@H]2C(N)=O)sc1-c1ccnc(C(C)(C)C(F)(F)F)c1 [Alpelisib] (partner 2 µM)

>  <relative viability>
1.01

$$$$
>  <MOLECULE>
O=C(O)CCCCC(CCSCc1ccccc1)SCc1ccccc1 (stereo not given) [CPI-613] + Nc1nc2[nH]cc(CCc3ccc(C(=O)N[C@@H](CCC(=O)O)C(=O)O)cc3)c2c(=O)[nH]1 [Pemetrexed] (partner 0.2 µM)

>  <relative viability>
0.179

$$$$
>  <MOLECULE>
O=C(O)CCCCC(CCSCc1ccccc1)SCc1ccccc1 (stereo not given) [CPI-613] + C[C@@H](Oc1cc(-c2cnn(C3CCNCC3)c2)cnc1N)c1c(Cl)ccc(F)c1Cl [Crizotinib] (partner 1 µM)

>  <relative viability>
0.984

$$$$

====

test system: COR-L23; assay: relative viability (nuclei count vs DMSO), 5 days (fraction); higher = more cells survive; conditions: first compound 0.006325 µM

>  <COMPOUND>
CC(=O)O[C@@]12CO[C@@H]1C[C@H](O)[C@@]1(C)C(=O)[C@H](O)C3=C(C)[C@@H](OC(=O)[C@H](O)[C@@H](NC(=O)OC(C)(C)C)c4ccccc4)C[C@@](O)([C@@H](OC(=O)c4ccccc4)[C@H]21)C3(C)C [Docetaxel] + CS(=O)(=O)CCNCc1ccc(-c2ccc3ncnc(Nc4ccc(OCc5cccc(F)c5)c(Cl)c4)c3c2)o1 [Lapatinib] (partner 2 µM)

>  <TARGET OR TEST SYSTEM>
COR-L23

>  <relative viability>
0.14

$$$$
>  <COMPOUND>
CC(=O)O[C@@]12CO[C@@H]1C[C@H](O)[C@@]1(C)C(=O)[C@H](O)C3=C(C)[C@@H](OC(=O)[C@H](O)[C@@H](NC(=O)OC(C)(C)C)c4ccccc4)C[C@@](O)([C@@H](OC(=O)c4ccccc4)[C@H]21)C3(C)C [Docetaxel] + O=C(c1cc(Cc2n[nH]c(=O)c3ccccc23)ccc1F)N1CCN(C(=O)C2CC2)CC1 [Olaparib] (partner 8 µM)

>  <TARGET OR TEST SYSTEM>
COR-L23

>  <relative viability>
0.134

$$$$
>  <COMPOUND>
CC(=O)O[C@@]12CO[C@@H]1C[C@H](O)[C@@]1(C)C(=O)[C@H](O)C3=C(C)[C@@H](OC(=O)[C@H](O)[C@@H](NC(=O)OC(C)(C)C)c4ccccc4)C[C@@](O)([C@@H](OC(=O)c4ccccc4)[C@H]21)C3(C)C [Docetaxel] + Cc1nc(Nc2ncc(C(=O)Nc3c(C)cccc3Cl)s2)cc(N2CCN(CCO)CC2)n1 [Dasatinib] (partner 0.075 µM)

>  <TARGET OR TEST SYSTEM>
COR-L23

>  <relative viability>
0.112

$$$$
>  <COMPOUND>
CC(=O)O[C@@]12CO[C@@H]1C[C@H](O)[C@@]1(C)C(=O)[C@H](O)C3=C(C)[C@@H](OC(=O)[C@H](O)[C@@H](NC(=O)OC(C)(C)C)c4ccccc4)C[C@@](O)([C@@H](OC(=O)c4ccccc4)[C@H]21)C3(C)C [Docetaxel] + Cc1nc(NC(=O)N2CCC[C@H]2C(N)=O)sc1-c1ccnc(C(C)(C)C(F)(F)F)c1 [Alpelisib] (partner 2 µM)

>  <TARGET OR TEST SYSTEM>
COR-L23

>  <relative viability>
0.0995

$$$$

====

Listed compounds paired with reported relative viability
system: NCI-H1734; experiment: relative viability (nuclei count vs DMSO), 5 days (fraction); higher = more cells survive; details: first compound 0.01581 µM

>  <COMPOUND>
COc1cc2nccc(Oc3ccc(NC(=O)Nc4cc(C)on4)c(Cl)c3)c2cc1OC [Tivozanib] + O=C(CCCCCCC(=O)Nc1ccccc1)NO [Vorinostat] (partner 1 µM)

>  <relative viability>
0.79

$$$$
>  <COMPOUND>
Nc1ccn([C@@H]2O[C@H](CO)[C@@H](O)[C@@H]2O)c(=O)n1 [Cytarabine] + O=C(CCCCCCC(=O)Nc1ccccc1)NO [Vorinostat] (partner 1 µM)

>  <relative viability>
0.361

$$$$
>  <COMPOUND>
COc1cc2nccc(Oc3ccc(NC(=O)Nc4cc(C)on4)c(Cl)c3)c2cc1OC [Tivozanib] + CS(=O)(=O)CCNCc1ccc(-c2ccc3ncnc(Nc4ccc(OCc5cccc(F)c5)c(Cl)c4)c3c2)o1 [Lapatinib] (partner 2 µM)

>  <relative viability>
1.05

$$$$
>  <COMPOUND>
Nc1ccn([C@@H]2O[C@H](CO)[C@@H](O)[C@@H]2O)c(=O)n1 [Cytarabine] + Cc1nc(NC(=O)N2CCC[C@H]2C(N)=O)sc1-c1ccnc(C(C)(C)C(F)(F)F)c1 [Alpelisib] (partner 2 µM)

>  <relative viability>
0.265

$$$$
>  <COMPOUND>
Nc1ccn([C@@H]2O[C@H](CO)[C@@H](O)[C@@H]2O)c(=O)n1 [Cytarabine] + COc1cc2c(Oc3ccc(NC(=O)C4(C(=O)Nc5ccc(F)cc5)CC4)cc3F)ccnc2cc1OCCCN1CCOCC1 [Foretinib] (partner 0.25 µM)

>  <relative viability>
0.373

$$$$
>  <COMPOUND>
Nc1ccn([C@@H]2O[C@H](CO)[C@@H](O)[C@@H]2O)c(=O)n1 [Cytarabine] + CC(=O)c1c(C)c2cnc(Nc3ccc(N4CCNCC4)cn3)nc2n(C2CCCC2)c1=O [Palbociclib] (partner 0.5 µM)

>  <relative viability>
0.214

$$$$
>  <COMPOUND>
Nc1ccn([C@@H]2O[C@H](CO)[C@@H](O)[C@@H]2O)c(=O)n1 [Cytarabine] + Nc1nc2[nH]cc(CCc3ccc(C(=O)N[C@@H](CCC(=O)O)C(=O)O)cc3)c2c(=O)[nH]1 [Pemetrexed] (partner 0.2 µM)

>  <relative viability>
0.236

$$$$
>  <COMPOUND>
COc1cc2nccc(Oc3ccc(NC(=O)Nc4cc(C)on4)c(Cl)c3)c2cc1OC [Tivozanib] + O=C(c1cc(Cc2n[nH]c(=O)c3ccccc23)ccc1F)N1CCN(C(=O)C2CC2)CC1 [Olaparib] (partner 8 µM)

>  <relative viability>
0.6

$$$$
>  <COMPOUND>
Nc1ccn([C@@H]2O[C@H](CO)[C@@H](O)[C@@H]2O)c(=O)n1 [Cytarabine] + O=C(c1cc(Cc2n[nH]c(=O)c3ccccc23)ccc1F)N1CCN(C(=O)C2CC2)CC1 [Olaparib] (partner 8 µM)

>  <relative viability>
0.243

$$$$
